Sourced from patent US20240279318A1

Overview of recorded Kd for various binders
- testTarget: T1, AFP158/HLA-A*02:01 complex (human)
- T1 construct: flowed over the chip in SPR; also called AFP158 pro
- test: SPR, scFv captured, pMHC in flow;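 note: complex injected at several concentrations over crude scFv, association then running-buffer dissociation, KD estimated from kinetic on- and off-rate constants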

binder	Kd / nM
LD97W (scFv, AS170036 VL1VH1 scFv mutein) scFv: QSALTQPRSVSGSPGQSVTISCAGTSSDVGSENYVSWYQQHPGKAPKLMIYQVNKRASGVPDRFSGSKSGNTASLTISGLQAEDEADYYCASYRSSWHNIVFGGGTKLTVLGGGGSGGGGSGGGGSEVQLVESGGGLVQPGGSLRLSCAASGFTFSSYAMSWVRQAPGKGLEWVSTINSGTGSPYYADSVKGRFTISRDNSKNTLYLQMNSLRAEDTAVYYCAKNFFDGSWFLGPPAMDYWGQGTLVTVSSHHHHHH	570
LY34I (scFv, AS170036 VL1VH1 scFv mutein) scFv: QSALTQPRSVSGSPGQSVTISCAGTSSDVGSENIVSWYQQHPGKAPKLMIYQVNKRASGVPDRFSGSKSGNTASLTISGLQAEDEADYYCASYRSSDHNIVFGGGTKLTVLGGGGSGGGGSGGGGSEVQLVESGGGLVQPGGSLRLSCAASGFTFSSYAMSWVRQAPGKGLEWVSTINSGTGSPYYADSVKGRFTISRDNSKNTLYLQMNSLRAEDTAVYYCAKNFFDGSWFLGPPAMDYWGQGTLVTVSSHHHHHH	1800
